We begin with a simple list: items and their reported IC50.
- SYSTEM NAME: HIV-1 integrase (wild-type IN) (Human immunodeficiency virus type 1 group M subtype B, UniProt P12497)
- ASSAY SUMMARY: HIV-1 integrase strand transfer assay (32P-labeled 21-mer, gel)
- Assay type: biochemical
- ASSAY CONTEXT: unit inferred; read-out: HIV-1 IN Inhibitory Activities Strand transfer
- Experimental: The oligonucleotides 21 top, 5′-[…]-3′ (SEQ ID NO:1) and 21 bot, 5′-[…]-3′ (SEQ ID NO:2) were purchased from Norris Cancer Center Core Facility (University of Southern California) and purified by UV shadowing on polyacrylamide gel. […] Gels were dried, exposed in a PhosphorImager cassette, and analyzed using a Typhoon 8610 Variable Mode Imager (Amersham Biosciences) and quantitated using ImageQuant 5.2. Percent inhibition (% I) was calculated using the following equation: %I=100×[1−(D−C)/(N−C)] […]
ENDPOINT LABEL: IC50 (µM)

{"columns": ["COMPOUND", "ENDPOINT LABEL", "LIMIT QUALIFIER", "OBSERVED RESULT"],
 "data": [
  ["O=C(Nc1ccc(O)c(-c2nc3ccccc3o2)c1)c1ccccc1F [XR19]", "IC50", "<", 100],
  ["COc1cc(/C=N/NC2=NC(=O)C(CC(=O)Nc3ccc(Cl)c(Cl)c3)S2)ccc1O (centres unmarked) [Example X278]", "IC50", "=", 38],
  ["O=C(O)CCCCCN1C(=O)C(O)=C(C(=O)c2ccc(Cl)cc2)C1c1ccc2c(c1)OCO2 (centres unmarked) [Compound T38]", "IC50", "=", 20],
  ["O=C(O)C(Cc1c[nH]c2ccccc12)NS(=O)(=O)c1ccccc1[N+](=O)[O-] (centres unmarked) [Example X182]", "IC50", "=", 56],
  ["O=C(/C=C/c1ccco1)NC(=S)Nc1ccccc1O [Example X205]", "IC50", "=", 28],
  ["CC(=O)C1=C(O)C(=O)N(CC(=O)O)C1c1ccc(Br)cc1 (centres unmarked) [Compound X36]", "IC50", ">", 100],
  ["CCOC(=O)c1c(-c2ccccc2)csc1NC(NC(=O)c1ccco1)C(=O)c1ccc(C)cc1 (centres unmarked) [Example X88]", "IC50", "=", 79],
  ["O=C(N/N=C1/C(=O)Nc2ccc(F)cc21)/C(=C/C=C/c1ccccc1)NC(=O)c1ccccc1 [Compound X231]", "IC50", "=", 38]
]}

* * *

- SYSTEM NAME: UniProt P12497
- ASSAY SUMMARY: HIV-1 integrase 3′-processing assay (32P-labeled 21-mer, gel)
- Type: biochemical
- ASSAY CONTEXT: wild-type IN 200 nM, 7.5 mM MnCl2; read-out: Inhibition of IN Catalytic Activities IC50 (μM) 3′-processing
# IC50 per record follows

{"columns": ["MOLECULE", "LIMIT QUALIFIER", "IC50, µM"],
 "data": [
  ["O=C(CCN1C(=O)/C(=C/c2ccc3c(c2)OCO3)SC1=S)Nc1ccc2c(c1)OCO2", "=", 97],
  ["O=C(NNC(=O)c1c(O)c2ccccc2[nH]c1=O)c1ccccc1Cl", "=", 28],
  ["Cc1ccc(S(=O)(=O)N(CC(=O)Nc2ccccc2C(=O)O)c2cccc(Cl)c2)cc1", "=", 98],
  ["Cc1cc([N+](=O)[O-])ccc1-c1ccc(/C=C/c2ccc3cccc(O)c3n2)o1", "=", 57],
  ["CCOc1ccc(C=C2SC(=S)N(CCC(=O)Nc3cccc(C(=O)O)c3)C2=O)cc1", "=", 93],
  ["COC(=O)c1ccc(C(=O)OC)c(NC(=O)c2ccc(C)c([N+](=O)[O-])c2)c1", "=", 92],
  ["Cc1ccc2[nH]c(/C(C#N)=C\\c3ccc(-c4ccc(C(=O)O)c(O)c4)o3)nc2c1", "=", 16],
  ["COc1cc(/C=C2/SC(=S)N(CC(=O)O)C2=O)ccc1OC(=O)c1ccc(F)cc1", ">", 100],
  ["Cc1ccc(C=C2SC(=S)N(CC(=O)Nc3cccc(C(=O)O)c3)C2=O)cc1", "=", 98],
  ["O=C(CCN1C(=O)C(=Cc2ccc3c(c2)OCO3)SC1=S)Nc1ccc(O)c(C(=O)O)c1", "=", 15],
  ["O=C(CN1C(=O)/C(=C2\\SC(=S)N(CC(=O)Nc3ccc(O)cc3)C2=O)SC1=S)Nc1ccc(O)cc1", "=", 59],
  ["O=C(O)c1c[nH]c2c(F)c(F)c(F)c(NCc3ccccc3)c2c1=O", ">", 12],
  ["O=C(CN1C(=O)C(=Cc2ccccc2Cl)SC1=S)Nc1ccc([N+](=O)[O-])cc1O", ">", 100],
  ["Cn1c(=O)c(C(=O)Nc2ccccc2S(N)(=O)=O)c(O)c2ccccc21", "=", 50],
  ["CCn1cc(C(=O)O)c(=O)c2cnc(N3CCN(C(=S)NC(=O)c4ccc(F)c(F)c4)CC3)nc21", "=", 64],
  ["CCCCCn1c(=O)c(C(=O)Nc2ccccc2S(N)(=O)=O)c(O)c2ccccc21", "=", 11],
  ["CCn1cc(C(=O)NN)c(=O)c2cc(F)c(N3CCCCCC3)cc21", "=", 94],
  ["COc1cc(C=C2SC(=S)N(CCC(=O)Nc3ccc(C(=O)O)cc3)C2=O)cc(OC)c1OC", "=", 97],
  ["CC(C)Cn1c(=O)c(C(=O)Nc2ccccc2S(N)(=O)=O)c(O)c2ccccc21", "=", 40],
  ["CC(=Cc1ccccc1)C=C1SC(=S)N(CCC(=O)Nc2ccc(O)c(C(=O)O)c2)C1=O", "=", 36],
  ["O=C(CCN1C(=O)C(=Cc2ccc3c(c2)OCO3)SC1=S)Nc1ccc(C(=O)O)c(O)c1", "=", 33],
  ["COc1ccc(/C=C2/SC(=S)N(CC(=O)O)C2=O)cc1OCc1ccccc1F", ">", 100],
  ["COC(=O)C1=C(C(=O)OC)SC(=C2C(=S)C(C)(C)N(C(=O)c3cccnc3)c3ccc(C)cc32)S1", ">", 100],
  ["CCOc1cc(/C=C2\\SC(=S)N(NC(=O)c3ccccc3O)C2=O)ccc1O", "=", 70],
  ["O=C(CCCN1C(=O)/C(=C/c2cccs2)SC1=S)Nc1nc2ccccc2s1", "=", 98],
  ["O=C1C(=Cc2c(NCCO)nc3ccccn3c2=O)SC(=S)N1Cc1ccco1", ">", 100],
  ["CCCCCn1c(=O)c(C(=O)Nc2cc([N+](=O)[O-])ccc2O)c(O)c2ccccc21", "=", 9],
  ["COc1cc(C=C2SC(=S)N(CC(=O)Nc3cc(Cl)ccc3O)C2=O)cc(OC)c1OC", "=", 32],
  ["CCn1cc(C(=O)O)c(=O)c2cc(F)c(N3CCN(C(=O)c4cccc(C)c4)CC3)cc21", ">", 100],
  ["O=C1/C(=C/c2ccc(O)cc2O)SC(=S)N1c1ccccc1", ">", 100],
  ["COc1ccc(C=C2SC(=S)N(CCC(=O)Nc3ccc(C(=O)O)c(O)c3)C2=O)cc1OC", "=", 61],
  ["C=CCn1c(=O)c(C(=O)Nc2ccccc2S(N)(=O)=O)c(O)c2ccccc21", "=", 83],
  ["Cc1ccc2ccc(C(Nc3ccccn3)c3ccc(F)cc3)c(O)c2n1 (stereo not shown)", ">", 100],
  ["COc1cc(/C=C2/SC(=S)N(CCC(=O)O)C2=O)ccc1OC(=O)c1ccccc1", "=", 42]
]}
